Target: FLT3 (Homo sapiens, UniProt P36888)
Sequence (P36888 27-993): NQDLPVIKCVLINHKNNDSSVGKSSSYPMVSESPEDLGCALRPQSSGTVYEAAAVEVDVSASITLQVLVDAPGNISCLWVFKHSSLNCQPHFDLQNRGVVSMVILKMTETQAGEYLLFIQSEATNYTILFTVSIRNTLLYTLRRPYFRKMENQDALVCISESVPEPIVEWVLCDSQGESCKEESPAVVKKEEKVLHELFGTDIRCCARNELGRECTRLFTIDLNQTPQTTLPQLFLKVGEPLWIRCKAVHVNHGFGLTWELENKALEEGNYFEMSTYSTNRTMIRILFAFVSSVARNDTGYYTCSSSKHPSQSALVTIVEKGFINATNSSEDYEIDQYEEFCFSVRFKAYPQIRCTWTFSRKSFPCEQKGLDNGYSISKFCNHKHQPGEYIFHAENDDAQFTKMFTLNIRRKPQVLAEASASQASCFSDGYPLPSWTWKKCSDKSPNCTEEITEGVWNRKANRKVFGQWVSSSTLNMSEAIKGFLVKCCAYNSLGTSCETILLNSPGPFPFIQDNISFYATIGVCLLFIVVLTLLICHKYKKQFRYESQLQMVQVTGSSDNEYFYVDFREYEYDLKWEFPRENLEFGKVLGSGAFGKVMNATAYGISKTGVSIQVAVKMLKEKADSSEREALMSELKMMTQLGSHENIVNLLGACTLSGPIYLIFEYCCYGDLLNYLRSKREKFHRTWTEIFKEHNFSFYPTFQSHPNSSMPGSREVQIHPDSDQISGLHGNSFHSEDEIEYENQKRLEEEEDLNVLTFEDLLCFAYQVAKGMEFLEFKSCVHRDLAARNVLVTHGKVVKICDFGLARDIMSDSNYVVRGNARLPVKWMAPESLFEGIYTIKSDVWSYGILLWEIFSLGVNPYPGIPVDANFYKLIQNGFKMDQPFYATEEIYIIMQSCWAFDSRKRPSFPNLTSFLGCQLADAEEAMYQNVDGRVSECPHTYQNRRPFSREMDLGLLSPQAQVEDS
Experiment: TR-FRET kinase activity assay, FLT3
Format: biochemical
Conditions: ATP at Km, 60 minutes
property label: IC50

Use these answered entries as a reference point.
compound="CN1CC(Nc2ncc3c(OC4CCOCC4)ncc([C@H]4CC[C@H](O)CC4)c3n2)CC1=O (stereo partly shown) [Compound 282]" property_label=IC50 measured="1000 to 10000 nM"
compound="COC[C@H](C)Nc1cc2c(cn1)c(OC1CCOCC1)ncc2[C@H]1CC[C@H](O)CC1 [Compound 285]" property_label=IC50 measured="1000 to 10000 nM"
compound="Cc1cc(Cl)ccc1Nc1ncc2c(OC3CCNCC3)ncc([C@H]3CC[C@H](O)CC3)c2n1 [Compound 198]" property_label=IC50 measured="100 to 1000 nM"
compound="CO[C@H]1C[C@@H]1Nc1ncc2c(O[C@H]3C[C@@H](O)C3)ncc([C@H]3CC[C@H](O)CC3)c2n1 [Compound 417]" property_label=IC50 measured="100 to 1000 nM"
compound="COCC(C)Nc1ncc2c(=O)n(C3CCN(C)CC3)cc([C@H]3CC[C@H](O)CC3)c2n1 (stereo partly shown) [Compound 118]" property_label=IC50 measured="1000 to 10000 nM"

May I ask what IC50 has been recorded for CC(C)CNc1ncc2c(OC3CCNCC3)ncc([C@H]3CC[C@H](O)CC3)c2n1 [Compound 212] ?
100 to 1000 nM

May I ask what IC50 has been recorded for CC[C@H](C)Nc1ncc2c(OC3CCN(C)CC3)ncc([C@H]3CC[C@H](O)CC3)c2n1 [Compound 221] ?
1000 to 10000 nM

Data provenance: patent US20200291018A1
